TESTED_SYSTEM: T1, HLA-A*0201 loaded with the Carcinoembryonic antigen (CEA)-derived … peptide (biotin on the C-terminal biotinylation tag)
T1 construct: Soluble, biotinylated, immobilised on a streptavidin chip
ASSAY: Biacore SPR
# key: entry, value: Kd
ENDPOINT_LABEL: Kd

- BINDER: "SEQ ID NO 112 (receptor, mutated soluble two domain ILT-2) MHLPKPTLWAEPGSVITMDQPVTLRCQGGQETQEYRLYRERKTAPWITRIPQELVKKGQFPIPSITWEHAGRYRCYYGSDTSQWSASSDPLELVVTGVYIKPTLSAQPSPVVNSGGNVTLQCDSQVAFDGFILCKEGEDEHPQCLNSQPHARGSSRAIFSVGPVSPSRRWWYRCYAYDSNSPYEWSLPSDLLELDVDG"
  ENDPOINT_LABEL: "Kd"
  RESULT: "≤ 1000 nM"
- BINDER: "SEQ ID NO 83 (receptor, mutated soluble two domain ILT-2) MGHLPKPTLWAEPGSVITQGSPVTLRCQGGQETQEYRLYREKKTAPWITRIPQELVKKGQFPIPSITWEHAGRYRCYYGSDTAGRSESSDPLELVVTGIYLAPTLSAQPSPVVNSGGNVTLQCDSQVAFDGFILCKEGEDEHPQCLNSQPHARGSSRAIFSVGPVSPSRRWWYRCYAYDSNSPYEWSLPSDLLELLVL"
  ENDPOINT_LABEL: "Kd"
  RESULT: "≤ 1000 nM"

# credit: patent US20100135997A1
